Test system: A549
Assay: Cytotoxicity against human A549 cells assessed as cell viability incubated for 72 hrs by MTT assay
Format: functional, cell-based
Conditions: A549, 72 h
ATTRIBUTE MEASURED: IC50 (µM)
Number only, in µM; omit the unit.

# input Report IC50 for CCOC(=O)CN1C(=O)S/C(=C\c2ccc(O)c(O)c2)C1=O please.
# output 32.3

----------
Biological target: BAG family molecular chaperone regulator 3 (Homo sapiens, UniProt O95817)
Sequence (O95817 whole entry): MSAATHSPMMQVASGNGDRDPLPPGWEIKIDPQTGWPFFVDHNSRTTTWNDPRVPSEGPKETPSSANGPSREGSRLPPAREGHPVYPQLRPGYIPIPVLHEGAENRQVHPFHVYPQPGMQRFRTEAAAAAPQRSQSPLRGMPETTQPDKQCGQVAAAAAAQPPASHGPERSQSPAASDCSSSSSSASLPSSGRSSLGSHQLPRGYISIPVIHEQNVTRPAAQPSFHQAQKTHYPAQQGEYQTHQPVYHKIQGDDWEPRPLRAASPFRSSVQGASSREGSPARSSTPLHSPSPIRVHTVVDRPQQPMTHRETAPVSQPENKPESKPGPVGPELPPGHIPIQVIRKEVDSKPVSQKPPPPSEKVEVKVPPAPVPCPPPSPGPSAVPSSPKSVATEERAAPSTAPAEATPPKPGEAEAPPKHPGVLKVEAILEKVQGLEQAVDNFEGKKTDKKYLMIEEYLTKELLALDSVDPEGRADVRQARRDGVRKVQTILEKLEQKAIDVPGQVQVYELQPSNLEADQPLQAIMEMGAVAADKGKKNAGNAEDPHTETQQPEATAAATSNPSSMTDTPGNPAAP
Test: Binding affinity to full length recombinant human BAG3 assessed as dissociation constant by SPR analysis
Activity calls are given as the source filed them. The rule behind the calls is not given here.
ATTRIBUTE MEASURED: Activity

These solved cases illustrate the format of a correct answer.
- CCCCNC(=O)C(c1ccccc1Br)N(Cc1ccccc1)C(=O)Cn1cc(-c2ccccc2)nn1 (stereo not given): inactive
- CCCCNC(=O)C(c1ccccc1Br)N(C(=O)Cn1cc(CCC(C)C)nn1)c1ccc(Cl)cc1 (stereo not given): inactive
- Cc1ccc(S(=O)(=O)CNC(=O)C(c2ccccc2Br)N(Cc2ccccc2)C(=O)Cn2cc(-c3ccccc3)nn2)cc1 (stereo not given): inactive
- CCn1c(=O)/c(=C2\Sc3ccccc3N2C)s/c1=C\c1cccc[n+]1C: inactive

# input Value wanted: Activity (BAG family molecular chaperone regulator 3 (Homo sapiens, UniProt O95817)) of entry CCCCNC(=O)C(c1c(Br)ccnc1Cl)N(CC(C)CC)C(=O)Cn1cc(-c2cccc(O)c2)nn1 (stereo not given)
# output inactive
